# System: cytosolic eukaryotic translation versus 16S rRNA A-site
# TEST: Selectivity ratio, ratio of IC50 for cytosolic eukaryotic translation in rabbit reticulocyte S30 extract to IC50 for 16S rRNA A-site in Escherichia coli S30 extract
# Type: toxicity
# TEST_PARAMETERS: read-out: Ratio IC50
In plain terms, low selectivity ratio, meaning strictly below 300, gives Criterion met, and everything else gives Criterion not met.

Example entries and their recorded answers appear below.
COMPOUND	TARGET	GROUP_LABEL
NC[C@H]1O[C@H](O[C@H]2[C@H](O[C@@H]3O[C@H](CO)[C@@H](O)[C@H]3O)[C@@H](O[C@H]3O[C@H](CO)[C@@H](O)[C@H](N)[C@H]3O)[C@H](N)C[C@@H]2N)[C@H](N)[C@@H](O)[C@@H]1O	cytosolic eukaryotic translation versus 16S rRNA A-site	Criterion not met
NC[C@H]1O[C@H](O[C@H]2[C@H](O)[C@@H](O)[C@H](N)C[C@@H]2N)[C@H](N)C[C@@H]1O	cytosolic eukaryotic translation versus 16S rRNA A-site	Criterion met
NC[C@H]1O[C@H](O[C@H]2[C@H](O[C@@H]3O[C@H](CO)[C@@H](O)[C@H]3O)[C@@H](O)[C@H](N)C[C@@H]2N)[C@H](N)[C@@H](O)[C@@H]1O [RIBOSTAMYCIN]	cytosolic eukaryotic translation versus 16S rRNA A-site	Criterion not met
NC[C@H]1O[C@H](O[C@H]2[C@H](O)[C@@H](O[C@H]3O[C@H](CO)[C@@H](O)[C@H](N)[C@H]3O)[C@H](N)C[C@@H]2N)[C@H](N)[C@@H](O)[C@@H]1O [BEKANAMYCIN]	cytosolic eukaryotic translation versus 16S rRNA A-site	Criterion not met

Read the next record carefully.
Task: Strictly below 300: is that where selectivity ratio of NCC[C@H](O)C(=O)N[C@@H]1C[C@H](N)[C@@H](O[C@H]2O[C@H](CN)[C@@H](O)[C@H](O)[C@H]2O)[C@H](O[C@@H]2O[C@H](CO)[C@@H](O)[C@H]2O)[C@H]1O[C@H]1O[C@H](CO)[C@@H](O)[C@H](N)[C@H]1O sits?
Result: Criterion met

----------
# TEST: Inhibition of cytosolic eukaryotic translation in rabbit reticulocyte S30 extract measured after 60 mins by coupled transcription/translation-based luciferase reporter gene assay
# Parameters: species or system Oryctolagus cuniculus
ENDPOINT: IC50 (µM)
Give bare numbers, in µM.

Could I get IC50 for every one of these entries?
1. NCC[C@H](O)C(=O)N[C@@H]1C[C@H](N)[C@@H](O[C@H]2O[C@H](CN)[C@@H](O)[C@H](O)[C@H]2O)[C@H](O)[C@H]1O[C@H]1O[C@H](CO)[C@@H](O)[C@H](N)[C@H]1O
2. NC[C@H]1O[C@H](O[C@H]2[C@H](O[C@@H]3O[C@H](CO)[C@@H](O)[C@H]3O)[C@@H](O)[C@H](N)C[C@@H]2N)[C@H](N)[C@@H](O)[C@@H]1O
3. NC[C@H]1O[C@H](O[C@H]2[C@H](O[C@@H]3O[C@H](CO)[C@@H](O)[C@H]3O)[C@@H](O[C@H]3O[C@H](CO)[C@@H](O)[C@H](N)[C@H]3O)[C@H](N)C[C@@H]2N)[C@H](N)[C@@H](O)[C@@H]1O

Result:
64.6
116
43.8

Task: Param item = NC[C@H]1O[C@H](O[C@H]2[C@H](O[C@@H]3O[C@H](CO)[C@@H](O)[C@H]3O)[C@@H](O[C@H]3O[C@H](CO)[C@@H](O)[C@H](N)[C@H]3O)[C@H](N)C[C@@H]2N)[C@H](N)C[C@@H]1O ; retrieve measured IC50.
Result: 49.1
